These entries and their values trace back to patent US4061637A.

# procedure_text: Pinching the tail of the mouse (systemic analgesic activity)
# Type: in vivo
# particulars: po, 0.5 h; mouse, 200 mg/kg os, 30 minutes
property_name: inhibition in vivo at 200 mg/kg (%)

>>> reading("O=c1[nH]c(-c2ccccc2)c(CCN2CCN(c3ccccc3)CC2)s1 [LR 637]")
30
>>> reading("COc1ccc(-c2[nH]c(=O)sc2CCN2CCN(c3ccccc3)CC2)cc1 [LR 639]")
0
>>> reading("O=c1[nH]c(-c2ccc(Cl)cc2)c(CCN2CCN(c3ccccc3)CC2)s1 [LR 638]")
10
>>> reading("O=c1[nH]c(-c2ccc(Cl)cc2)c(CN2CCCCC2)s1 [LR 659]")
0
>>> reading("O=c1[nH]c(-c2ccc(F)cc2)c(CCN2CCN(c3ccccc3)CC2)s1 [LR 599]")
30
>>> reading("Cn1c(-c2ccc(F)cc2)c(CCN2CCN(c3ccccc3)CC2)sc1=O [LR 652]")
0

====

# procedure_text: Carrageen oedema in the conscious rat (anti-inflammatory activity)
# Format: in vivo
# particulars: 200 mg/kg ip
Listing of recorded Anti-inflammatory activity carrageenin oedema rat, percentage activity (ED30 lacking) by entry.
property_name: Anti-inflammatory activity carrageenin oedema rat, percentage activity (ED30 lacking) (%)

>>> reading("COc1ccc(-c2[nH]c(=O)sc2CCN2CCN(c3ccccc3)CC2)cc1")
8.1
>>> reading("O=c1[nH]c(-c2ccc(F)cc2)c(CCN2CCN(c3ccccc3)CC2)s1")
20
>>> reading("O=c1[nH]c(-c2ccccc2)c(CCN2CCN(c3ccccc3)CC2)s1")
11.6
>>> reading("O=c1[nH]c(-c2ccc(Cl)cc2)c(CCN2CCN(c3ccccc3)CC2)s1")
14

====

Listing of recorded selectivity ratio by entry.
# procedure_text: Fibrillation induced by CaCl2 of the rat anaesthetised with urethane (anti-arrhythmic activity)
# Type: in vivo
# particulars: in vivo; LD50 rat iv / ED50 CaCl2; read-out: I.T. (1), therapeutic index from the ratio LD50 rat iv/ED50
# Description: Fibrillation induced by CaCl2 of the rat anaesthetised with urethane (1 g/kg ip) The method described by Malinow and colleagues (Rev. Argent. Cardiol., 19, 120, 1952) was followed, which consists of inducing cardiac fibrillation by administering intravenously 2 ml/kg of an 8% solution of CaCl2 in rats pretreated intravenously with scalar doses of anti-arrhythmics. The ED50 was calculated for each active drug.
property_name: selectivity ratio

>>> reading("COc1ccc(-c2[nH]c(=O)sc2CCN(C)CCc2ccccc2)cc1")
12
>>> reading("CCN(CC)CCc1sc(=O)[nH]c1-c1ccc(F)cc1")
24
>>> reading("Cl.O=c1[nH]c(-c2ccc(F)cc2)c(CCN2CCCCC2)s1 [LR 617, hydrochloride]")
15
>>> reading("Cl.O=c1[nH]c(-c2ccc(F)cc2)c(CCN2CCOCC2)s1 [LR 618, hydrochloride]")
9
